# experimentNotes: Solubility of brexanolone by visual assessment of dissolution in various solvents
# Format: physicochemical
# recordedConditions: organic solvent or mixture, thermodynamic from solid; solvent 2-Propanol:water (9:1, v:v); RT (~22° C.); read-out: Solubility at RT
endpoint: solubility

chemicalSmiles: CC(=O)[C@H]1CC[C@H]2[C@@H]3CC[C@H]4C[C@H](O)CC[C@]4(C)[C@H]3CC[C@]12C
dataValue: 20 to 51 mg/mL

* * *

# experimentNotes: Solubility of brexanolone by visual assessment of dissolution in various solvents
# Format: physicochemical
# recordedConditions: organic solvent or mixture, thermodynamic from solid; solvent Dimethyl sulfoxide (DMSO); 40° C. for 1 h

compound: CC(=O)[C@H]1CC[C@H]2[C@@H]3CC[C@H]4C[C@H](O)CC[C@]4(C)[C@H]3CC[C@]12C [brexanolone]
solubility at 1 h: > 20 mg/mL

* * *

# experimentNotes: Solubility of brexanolone by visual assessment of dissolution in various solvents
# Type: physicochemical
# recordedConditions: organic solvent or mixture, thermodynamic from solid; solvent Dichloromethane (DCM); 40° C. for 1 h

chemicalSmiles: CC(=O)[C@H]1CC[C@H]2[C@@H]3CC[C@H]4C[C@H](O)CC[C@]4(C)[C@H]3CC[C@]12C
solubility at 1 h: > 108 mg/mL

* * *

# experimentNotes: Solubility of brexanolone by visual assessment of dissolution in various solvents
# Format: physicochemical
# recordedConditions: organic solvent or mixture, thermodynamic from solid; solvent Methanol (MeOH); RT (~22° C.); read-out: Solubility at RT

molecule: CC(=O)[C@H]1CC[C@H]2[C@@H]3CC[C@H]4C[C@H](O)CC[C@]4(C)[C@H]3CC[C@]12C [brexanolone]
solubility: 19 to 49 mg/mL

* * *

# experimentNotes: Solubility of brexanolone by visual assessment of dissolution in various solvents
# Assay type: physicochemical
# recordedConditions: 22 °C, organic solvent or mixture, thermodynamic from solid; RT; in THF and DCM; read-out: high solubility at RT

chemicalSmiles: CC(=O)[C@H]1CC[C@H]2[C@@H]3CC[C@H]4C[C@H](O)CC[C@]4(C)[C@H]3CC[C@]12C
solubility: > 96 mg/mL

* * *

# experimentNotes: Solubility of brexanolone by visual assessment of dissolution in various solvents
# Assay type: physicochemical
# recordedConditions: 22 °C, organic solvent or mixture, thermodynamic from solid; RT; in MeCN, IPE, MTBE, IPA, MeOH, IPA:water (9:1, v:v), toluene, DMSO, EtOAc (span over these solvents); read-out: moderate solubility at RT

compound: CC(=O)[C@H]1CC[C@H]2[C@@H]3CC[C@H]4C[C@H](O)CC[C@]4(C)[C@H]3CC[C@]12C [brexanolone]
solubility: 6 to 52 mg/mL

* * *

# experimentNotes: Solubility of brexanolone by visual assessment of dissolution in various solvents
# Assay type: physicochemical
# recordedConditions: organic solvent or mixture, thermodynamic from solid; solvent Tetrahydrofuran (THF); 40° C. for 1 h
endpoint: solubility at 1 h

molecule: CC(=O)[C@H]1CC[C@H]2[C@@H]3CC[C@H]4C[C@H](O)CC[C@]4(C)[C@H]3CC[C@]12C [brexanolone]
dataValue: > 96 mg/mL

* * *

# experimentNotes: Solubility of brexanolone by visual assessment of dissolution in various solvents
# Type: physicochemical
# recordedConditions: organic solvent or mixture, thermodynamic from solid; solvent Toluene; 40° C. for 1 h
# Description: Solubility of the supplied brexanolone was determined by visual assessment of dissolution in various solvents at RT (˜22° C.) and 40° C. Aliquots of solvent were added to a fixed amount of brexanolone (˜10 mg) at room temperature until the dissolution point or a maximum volume of 1.8 mL was reached. All samples were then heated to 40° C. for 1 h and dissolution was observed. As shown in Error!
endpoint: solubility at 1 h

chemicalSmiles: CC(=O)[C@H]1CC[C@H]2[C@@H]3CC[C@H]4C[C@H](O)CC[C@]4(C)[C@H]3CC[C@]12C
dataValue: > 20 mg/mL
